test_target: NLRP3 (Homo sapiens, UniProt Q96P20)
Sequence (Q96P20 whole entry): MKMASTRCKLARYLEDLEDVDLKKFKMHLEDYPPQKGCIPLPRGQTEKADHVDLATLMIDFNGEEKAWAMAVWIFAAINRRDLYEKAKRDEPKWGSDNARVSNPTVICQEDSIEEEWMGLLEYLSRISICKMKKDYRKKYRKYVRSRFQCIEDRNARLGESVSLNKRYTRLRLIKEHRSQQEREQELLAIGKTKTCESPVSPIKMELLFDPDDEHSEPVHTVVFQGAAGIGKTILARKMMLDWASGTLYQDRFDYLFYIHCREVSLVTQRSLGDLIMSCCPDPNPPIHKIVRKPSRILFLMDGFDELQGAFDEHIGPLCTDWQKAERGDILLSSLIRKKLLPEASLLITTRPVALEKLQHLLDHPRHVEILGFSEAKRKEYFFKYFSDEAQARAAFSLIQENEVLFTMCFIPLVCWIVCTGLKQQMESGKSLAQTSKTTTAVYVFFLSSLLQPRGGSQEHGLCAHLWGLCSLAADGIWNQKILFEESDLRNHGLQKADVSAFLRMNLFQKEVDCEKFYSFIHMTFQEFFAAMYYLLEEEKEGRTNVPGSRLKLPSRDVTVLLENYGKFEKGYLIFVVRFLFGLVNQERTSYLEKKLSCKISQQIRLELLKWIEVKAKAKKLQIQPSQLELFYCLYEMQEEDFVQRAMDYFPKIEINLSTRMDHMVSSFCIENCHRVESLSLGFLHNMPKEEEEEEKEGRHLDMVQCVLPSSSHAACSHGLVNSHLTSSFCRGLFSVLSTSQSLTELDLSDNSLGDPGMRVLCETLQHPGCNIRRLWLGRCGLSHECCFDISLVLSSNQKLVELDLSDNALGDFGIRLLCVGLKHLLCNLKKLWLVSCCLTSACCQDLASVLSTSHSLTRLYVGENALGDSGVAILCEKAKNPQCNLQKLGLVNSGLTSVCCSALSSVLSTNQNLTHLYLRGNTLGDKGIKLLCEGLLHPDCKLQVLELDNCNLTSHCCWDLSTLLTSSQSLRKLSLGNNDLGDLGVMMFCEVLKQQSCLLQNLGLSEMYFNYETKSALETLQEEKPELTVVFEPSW
experiment_summary: THP-1 cells pyroptosis assay
Assay type: cell-based
Parameters: Seed THP-1 cells (25,000 cells/well) containing 10 μg/ml LPS; host or cells: THP-1 cells
run_parameters: LPS primed, nigericin 5 μM, resazurin read-out
pIC50: −log10 of the molar value.
Catalogue of molecules with associated pIC50
test_readout: pIC50

>  <molecule>
CCN1CCC2CCN(c3ccc(-c4c(C)cc(C#N)cc4O)nn3)C2C1 (single isomer, unassigned) [Example 6B]

>  <val>
6.12

$$$$
>  <molecule>
CCN1CCC2CCN(c3ccc(-c4c(C)cc(C#N)cc4O)nn3)C2C1 (single isomer, unassigned) [Example 6A]

>  <val>
8.41

$$$$
>  <molecule>
CCN1CCC[C@@H](Nc2cc(C)c(-c3ccc(C#N)cc3O)nn2)C1

>  <val>
8.51

$$$$
>  <molecule>
CCN1CCC[C@@H](Nc2cc(C(F)(F)F)c(-c3ccc(C#N)cc3O)nn2)C1

>  <val>
7.14

$$$$
>  <molecule>
Cc1cc(N[C@H]2C[C@@](C)(O)C2)nnc1-c1ccc(C#N)cc1O

>  <val>
6.08

$$$$
